# ASSAYED TARGET: JAK3 (catalytic domain, His-tag) (Homo sapiens)
# Construct: All four purified enzymes contain only the catalytic domain; His (N); purchased Carna Biosciences, Inc; host or cells: baculovirus expression system
# Sequence (P52333 822-1111 limits assumed): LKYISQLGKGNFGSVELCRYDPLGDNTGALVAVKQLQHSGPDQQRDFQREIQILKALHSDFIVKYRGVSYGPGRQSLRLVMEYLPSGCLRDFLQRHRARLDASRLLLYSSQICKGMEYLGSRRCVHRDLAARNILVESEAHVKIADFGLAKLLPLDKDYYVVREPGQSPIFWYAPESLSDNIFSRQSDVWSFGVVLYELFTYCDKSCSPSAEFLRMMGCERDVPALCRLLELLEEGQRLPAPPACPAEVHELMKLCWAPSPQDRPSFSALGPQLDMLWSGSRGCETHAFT
# TEST: JAK kinase assay (HTRF, phosphorylation of TK substrate-biotin), JAK3
# Format: biochemical
# EXPERIMENTAL PARAMETERS: HTRF assay, ATP at Km (2 μM); read-out: JAK3 kinase inhibitory activity (EC50 indicator)
Item-by-item account of EC50
MEASURED ATTRIBUTE: EC50

1. N#Cc1ccccc1C(=O)N1CCN(c2ncnc3[nH]ccc23)CC12CC2    100 to 500 nM
2. NS(=O)(=O)c1ccc(C(=O)N2CCN(c3ncnc4[nH]ccc34)CC23CC3)cc1    < 100 nM
3. O=C(c1cnccn1)N1CCN(c2ncnc3[nH]cc(Cl)c23)CC12CC2    > 500 nM
4. Cc1c(C(=O)N2CCN(c3ccnc4[nH]ccc34)CC23CC3)sc2ccccc12    > 500 nM
5. O=C(c1ccncc1)N1CCN(c2ccnc3[nH]ccc23)CC12CC2    > 500 nM
6. CS(=O)(=O)c1ccc(C(=O)N2CCN(c3ncnc4[nH]ccc34)CC23CC3)cc1F    < 100 nM
7. CC(C)S(=O)(=O)Nc1ccc(C(=O)N2CCN(c3ncnc4[nH]ccc34)CC23CC3)cc1    < 100 nM
